# experimental_details: blockers of VCAM1 upregulation by TNFa – imaging, TNFa stimulus, retest and dose response, confirmation (AID 1013);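 further: compound on cells 1 h before TNFa then 24 h more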
# details: TNFa-stimulated cells, VCAM1 expression imaging; cell count; at 10 µM; stronger effect = lower value
property_measured: cell count (%)
Quick reminder: number only, in %, skip the unit.

line_notation=COc1ccc(C(=O)c2ccc(N(C)C)cc2)c2ccccc12 unit_text=% test_value=93.2
line_notation=O=C(N/N=C/C(Br)=C\c1ccccc1)c1n[nH]c2c1CCC2 unit_text=% test_value=29.2

Please report the recorded cell count for `Cc1ccc(CSc2nc3ccccc3cc2C=O)cc1` .
110

Repeat for the following compound: `COc1ccc(N=c2oc3ccc(OC)cc3cc2-c2nc3ccccc3[nH]2)cc1`
110

----------
# experimental_details: blockers of VCAM1 upregulation by TNFa – imaging, TNFa stimulus, retest and dose response, confirmation (AID 1013);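 further: compound on cells 1 h before TNFa then 24 h more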
# details: TNFa-stimulated cells, VCAM1 expression imaging; cell count; at 10 µM; stronger effect = lower value
property_measured: cell count (%)
Quick reminder: number only, in %, skip the unit.

Examples with answers:
molecule=Cc1ccc(C(=O)c2cc([N+](=O)[O-])ccc2N2CCOCC2)c(C)c1 property_measured="cell count" test_value=41.4
molecule=NC(=S)N/N=C/c1ccc(-c2ccc(Cl)c(Cl)c2)o1 property_measured="cell count" test_value=93.5
molecule=Cc1cccc(NC(=O)CSc2nc3ccc(NC(=O)CSc4nnnn4-c4ccccc4)cc3s2)c1C property_measured="cell count" test_value=107
molecule=Cc1cc(NC(=O)CSc2nc(-c3cccs3)cc(C(F)(F)F)n2)no1 property_measured="cell count" test_value=111
molecule=CCOc1ccc(S(=O)(=O)Nc2cc(OC)ccc2OC)cc1 property_measured="cell count" test_value=45.4
molecule=COc1ccc(C2=Nn3c(nnc3-c3ccc(OC)cc3)SC2)cc1 property_measured="cell count" test_value=114

Please report the recorded cell count for `Cc1ccc(-c2nc(NC(=O)c3nn(C)cc3[N+](=O)[O-])sc2C)cc1` .
113

Repeat for the following molecule: `COc1cc(/C=C(/C#N)C(=O)NCCc2c[nH]c3ccccc23)ccc1OCc1ccccc1F`
98.2

Repeat for the following molecule: CCN(CC)c1ccc(C2=NNC(=O)CC2C)cc1[N+](=O)[O-] (centres undefined)
50.8

Repeat for the following molecule: Cc1ccc(C)c(NC(=S)NC(NC(=O)Cc2cccc3ccccc23)C(Cl)(Cl)Cl)c1 (centres undefined)
99.3

Repeat for the following molecule: `Cc1cc(C)c2nc(SCC(=O)N3CC(=O)Nc4ccccc43)c(C#N)cc2c1`
47.2

Repeat for the following molecule: O=C(Nc1ccccc1)c1nnsc1S(=O)c1ccc(Cl)cc1 (centres undefined)
95.6

Repeat for the following molecule: `O=S(=O)(c1ccc(Cl)c(Cl)c1)c1snnc1-c1ccccc1`
99.6

----------
# experimental_details: blockers of VCAM1 upregulation by TNFa – imaging, TNFa stimulus, retest and dose response, confirmation (AID 1013);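 further: compound on cells 1 h before TNFa then 24 h more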
# details: TNFa-stimulated cells, VCAM1 expression imaging; cell count; at 10 µM; stronger effect = lower value
property_measured: cell count (%)
Quick reminder: number only, in %, skip the unit.

molecule="CC(C)Oc1ccccc1C1CC(=O)Nc2cc3c(cc21)OCCO3 (centres undefined)" property_measured="cell count" unit_text=% test_value=104
molecule=CCOc1ccc(C2=Nn3c(nnc3-c3ccccc3OC)SC2)cc1 property_measured="cell count" unit_text=% test_value=32.1
molecule=CCOC(=O)Nc1nc(-c2ccccc2)c(C(=O)c2ccccc2)s1 property_measured="cell count" unit_text=% test_value=61.6
molecule=Nc1nnnn1/N=C/C(Br)=C/c1ccccc1 property_measured="cell count" unit_text=% test_value=106
molecule=COc1ccc(C(=O)c2c(C(F)(F)F)oc3c2C(=O)c2ccccc2C3=O)cc1 property_measured="cell count" unit_text=% test_value=105
molecule=CCN(CC)c1ccc2cc(-c3nc4ccccc4n3C)c(=O)oc2c1 property_measured="cell count" unit_text=% test_value=106
molecule=O=C(Nc1nccs1)c1cccc(N2C(=O)c3cccc4c([N+](=O)[O-])ccc(c34)C2=O)c1 property_measured="cell count" unit_text=% test_value=102
molecule="CC1CC(=O)NN=C1c1ccc(NCCO)c([N+](=O)[O-])c1 (centres undefined)" property_measured="cell count" unit_text=% test_value=71.6

Please report the recorded cell count for `O=C1C(=O)c2ccccc2-c2ccccc21` .
44.1

Repeat for the following molecule: `Cc1ccc2[nH]c(-c3ccccc3)cc(=O)c2c1`
63.3

Repeat for the following molecule: `CCOC(=O)c1[nH]c(C)c(C(=O)c2cc(F)ccc2F)c1C`
70.7

Repeat for the following molecule: COc1cc(C2C(C#N)=C(N)Oc3cc(N(C)C)ccc32)cc2c1OCO2 (centres undefined)
47.6

Repeat for the following molecule: `Cc1ccc(Cl)cc1NC1=C/C(=N\S(=O)(=O)c2cccs2)c2ccccc2C1=O`
123

Repeat for the following molecule: `O=Cc1cc2ccccc2nc1SCc1ccc(Cl)c(Cl)c1`
109

----------
# experimental_details: blockers of VCAM1 upregulation by TNFa – imaging, TNFa stimulus, retest and dose response, confirmation (AID 1013);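 further: compound on cells 1 h before TNFa then 24 h more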
# details: TNFa-stimulated cells, VCAM1 expression imaging; cell count; at 10 µM; stronger effect = lower value
Labelling: cell count reported below 70% becomes T; at or above becomes F.

compound=O=C(OCn1ncc(Br)c(Br)c1=O)c1c(F)cccc1F discrete_label=T
compound="COc1ccc(OC)c(C2C3=C(COC3=O)Nc3cc4c(cc32)OCO4)c1 (stereo not given)" discrete_label=F
compound="COc1cc(C2C(C#N)=C(C)NC3=C2C(=O)c2ccccc23)cc(OC)c1OC (stereo not given)" discrete_label=T
compound=Cc1cc(NC(=O)CSc2nc(-c3ccco3)cc(C(F)(F)F)n2)no1 discrete_label=F
compound=N=c1c2c(-c3ccccc3)c(-c3ccccc3)n(Cc3ccccc3)c2ncn1CCCn1ccnc1 discrete_label=T

Consider the compound `Cc1ccc(NC2=C/C(=N\S(=O)(=O)c3cccs3)c3ccccc3C2=O)c(C)c1` . Is its cell count strictly less than 70%?
F

Repeat for the following compound: `Cn1cc(/C=N/n2cnc3scc(-c4ccc(Cl)cc4)c3c2=O)c2ccccc21`
F

Repeat for the following compound: CCCOC(=O)c1[nH]c2c(c1C)C(=O)CC(c1cccs1)C2 (stereo not given)
F

Repeat for the following compound: Cc1c(C(=O)OCC(C)C)[nH]c2c1C(=O)CC(c1ccco1)C2 (stereo not given)
T

----------
Listed compounds paired with reported cell count
# experimental_details: blockers of VCAM1 upregulation by TNFa – imaging, TNFa stimulus, retest and dose response, confirmation (AID 1013);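 further: compound on cells 1 h before TNFa then 24 h more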
# details: TNFa-stimulated cells, VCAM1 expression imaging; cell count; at 10 µM; stronger effect = lower value
Quick reminder: number only, in %, skip the unit.

compound=O=S(=O)(C/C(=C/CO)S(=O)(=O)c1ccccc1)c1ccccc1 property_measured="cell count" test_value=9.93
compound="COc1ccc(C(=O)C(CN2CCOCC2)c2ccccc2)cc1 (centres undefined)" property_measured="cell count" test_value=73.8
compound=CC[C@@H](C)[C@H](NC(=O)OC(C)(C)C)c1nnc(S(=O)(=O)Cc2cc(C)ccc2C)o1 property_measured="cell count" test_value=117

Please report the recorded cell count for `CCOc1ccccc1C(=O)N1CCN(c2cccc(Cl)c2)CC1` .
15.7

----------
# experimental_details: blockers of VCAM1 upregulation by TNFa – imaging, TNFa stimulus, retest and dose response, confirmation (AID 1013);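 further: compound on cells 1 h before TNFa then 24 h more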
# details: TNFa-stimulated cells, VCAM1 expression imaging; cell count; at 10 µM; stronger effect = lower value
Labelling: cell count reported below 90% becomes criterion met; at or above becomes criterion not met.

Here's what some known entries look like.
compound=O=C1C(=O)c2ccc(-c3ccccc3)cc2-c2ccccc21 discrete_label="criterion not met"
compound="COc1ccc(NC(=O)/C(Cl)=C(/Cl)S(=O)Cc2ccccc2)cn1 (stereo unspecified)" discrete_label="criterion met"
compound=O=C1CCCc2c1[nH]c1ccc(Cl)cc21 discrete_label="criterion met"
compound=CC(/C=N/NC(=O)c1cc(-c2ccncc2)nc2ccccc12)=C\c1ccco1 discrete_label="criterion met"
compound=Cc1ccc2nc(SCC(=O)Nc3cc(C(F)(F)F)ccc3N3CCOCC3)[nH]c2c1 discrete_label="criterion not met"

Consider the compound `CC(C)(C)C(=O)/C(=C\c1cccc([N+](=O)[O-])c1)n1cncn1` . Is its cell count strictly less than 90%?
criterion met

Repeat for the following compound: `COc1ccc(-c2c/c(=N\c3nc(-c4ccccc4)c(C)s3)c3ccccc3o2)cc1O`
criterion not met

Repeat for the following compound: `COc1ccc(C2=Nn3c(nnc3-c3ccccc3OC)SC2)cc1OC`
criterion met

Repeat for the following compound: C/C=C/COC(=O)c1[nH]c2c(c1C)C(=O)CC(c1ccco1)C2 (stereo unspecified)
criterion met

Repeat for the following compound: `COc1cc(/C=N/Nc2snc(SC)c2C#N)ccc1O`
criterion not met

Repeat for the following compound: `COc1ccc(OC)c(NS(=O)(=O)c2ccc(N3CCCC3=O)cc2)c1`
criterion met

Repeat for the following compound: `Oc1ccc(Nc2nc3ccccc3nc2Nc2ccc(O)cc2)cc1`
criterion met

Repeat for the following compound: `CC(=O)c1ccc(Oc2cc(C)nc(-n3nc(C)cc3C)n2)cc1`
criterion met

Repeat for the following compound: COCCOC(=O)c1[nH]c2c(c1C)C(=O)CC(c1ccccc1)C2 (stereo unspecified)
criterion met

Repeat for the following compound: `O=S(=O)(c1ccc(Cl)cc1)c1snnc1-c1ccccc1`
criterion met

Repeat for the following compound: `Cc1cc(C)c(/C=N/NC(N)=O)c(C)c1/C=N/NC(N)=O`
criterion met

Repeat for the following compound: `O=C(/C(=C/c1ccc(Cl)cc1)c1nc2ccccc2[nH]1)c1cccs1`
criterion met

Repeat for the following compound: `Cc1ccc(-n2ncc3c(N4CCN(c5ccccc5)CC4)ncnc32)c(C)c1`
criterion not met

Repeat for the following compound: `C=CCn1c(SCc2c(C)noc2C)nc2ccccc2c1=O`
criterion met

Repeat for the following compound: `CCOC(=O)Cc1cc(-c2ccc(O)cc2)nc2ccc3ccccc3c12`
criterion not met

Repeat for the following compound: `CCN1/C(=C\C=C\C2=[N+](CC)c3ccccc3C2(C)C)C(C)(C)c2ccccc21`
criterion met

Repeat for the following compound: `CCOC(=O)C1=C(c2ccccc2)O/C(=C(/C#N)C(F)(F)F)S1`
criterion not met

Repeat for the following compound: `O=C(c1ccc(Br)cc1)c1cc([N+](=O)[O-])ccc1N1CCCCC1`
criterion not met

Repeat for the following compound: `Cc1ccc(Nc2nc(-c3c(C)nc4ccccn34)cs2)cc1`
criterion met

Repeat for the following compound: `COc1ccccc1-n1cnc2cc(NCc3ccco3)ccc21`
criterion met

Repeat for the following compound: `CCC(=O)Nc1nc(-c2ccccc2)ns1`
criterion not met

Repeat for the following compound: `C=CCSc1nc2ccccc2n1C(=O)/C=C/c1cc(OC)c(OC)c(OC)c1`
criterion not met

Repeat for the following compound: `Cc1ccccc1NC1=C/C(=N\S(=O)(=O)c2cccs2)c2ccccc2C1=O`
criterion not met
